The reported measurements were obtained from patent US20240075137A1.

Target: T1, human TIGIT on cells (human, UniProt Q495A1 22-141)
T1 construct: also called Expi293 human TIGIT over-expressing cells
T1 sequence: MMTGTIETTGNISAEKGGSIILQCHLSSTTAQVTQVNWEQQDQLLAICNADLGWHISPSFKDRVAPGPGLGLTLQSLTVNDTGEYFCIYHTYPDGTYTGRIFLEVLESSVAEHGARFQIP
Experiment: FACS titration of AF647-labelled mAb on human effector memory CD8+ T cells, Donor 321
Result type: Kd (nM)
Answers are plain numbers, in nM.

A selection of reference data follows.
1) CHA.9.547.7.H4(S241P) (antibody, human IgG4 S228P, kappa, V domains shown, humanized hybridoma anti-TIGIT antibody, human IgG4) VH: EVQLVESGGGLVQPGGSLRLSCAASGFTFSSYIMSWVRQAPGKGLEWVATISGGGTNTYYADSVKGRFTISRDNSKNTLYLQMNSLRAEDTAVYYCAKWLLSYYAMDYWGQGTLVTVSS VL: DIQMTQSPSSLSASVGDRVTITCRASQNINVWLTWYQQKPGKAPKLLIYKASKSHTGVPSRFSGSGSGTDFTLTISSLQPEDFATYYCQQGQSYPYTFGQGTKLEIKR	1.8
2) BM26 hIgG4 (antibody, V domains shown, benchmark anti-human TIGIT antibody, human IgG4 with S241P; also called BM26-H4; WO2016/028656A1 Clone 3106 as hIgG4) VH: EVQLQQSGPELVKPGSSVKMSCKASGYTFSSYVMHWVKQKPGQGLEWIGYIDPYNDGAKYNEKFKGKATLTSDKSSSTAYMELSSLTSEDSAVYYCARGGPYGWYFDVWGAGTTVTVSS VL: DIQMTQSPASLSASVGETVTITCRASEHIYSYLSWYQQKQGKSPQLLVYNAKTLAEGVPSRFSGSGSGTQFSLKINSLQPEDFGTYYCQHHFGSPLTFGAGTTLELKR	0.93

Please turn your attention to the following entry.
Query: Can you look up the measured Kd of CPA.9.086.H4(S241P) (antibody, human IgG4 S228P, lambda, V domains shown) VH: EVQLVETGGGLIQPGRSLRLSCAASGFTFSSYAMHWVRQAPGKGLEWVAVISYAGEVKYYADSVKGRFTISRDNSKNTLYLQMNSLRAEDTAVYYCARDPLPLHYYGMDVWGQGTTVTVSS VL: QSALTQPRSASGNPGQRVTISCSGSSSNMGRRPVNWYQQIPGTAPKLLIYSQNQRPSGVPDRFSGSQSGTSASLTISGLQSEDEAEYFCAVWDDIGRVLQLGGGTQLAVLG for me?
Response: 0.09
